measurement_notes: Measurement of elution time in reversed phase HPLC (correlates to hydrophobicity)
Type: physicochemical
particulars: reversed phase C-18 column, 40° C., 0.012N hydrochloric acid with 15, 25 and 50% acetonitrile, 50 minutes, 0.8 ml/min
Square brackets hold non-standard residues; d marks the D form. Ends that are not written are not given here. hSer = N[C@@H](CCO)C(=O)O
outcome_measure: Retention time (min)
Numbers only; they are read as min.

As a guide, the following entries are already answered.
VIP analog-oleylamide derivative (HSDAVFTGNYTKLRKQLAAKKYLNKALK[hSer]-oleylamide) [Production Example 5] ... 48.3
VIP analog-dihexylamide derivative (HSDAVFTGNYTKLRKQLAAKKYLNKALK[hSer]-dihexylamide) [Production Example 6] ... 41.4
VIP analog-stearylamide derivative (HSDAVFTGNYTKLRKQLAAKKYLNKALK[hSer]-stearylamide) [Production Example 4] ... 46.8

Incoming: Report Retention time for VIP analog-ethylenediaminemonoamide derivative (HSDAVFTGNYTKLRKQLAAKKYLNKALK[hSer]-{ethylenediamine monoamide}) [Production Example 8] please.
Outgoing: 12.1

Incoming: Field request: Retention time | item: VIP analog-triethylenetetraminemonoamide derivative (HSDAVFTGNYTKLRKQLAAKKYLNKALK[hSer]-{triethylenetetramine monoamide}) [Production Example 7]
Outgoing: 10.9

Incoming: Look up Retention time for this substance: Reference Production Example: basic VIP analog of SEQ ID NO: 3 disclosed in JP-A-6-220090 / EP-A-0,613,904, starting material of the derivatives (HSDAVFTGNYTKLRKQLAAKKYLNKALK[hSer]; ends and bridges not checked) [reference compound]
Outgoing: 13.8

Incoming: Fill blank: measured Retention time of the substance VIP analog-laurylamide derivative (HSDAVFTGNYTKLRKQLAAKKYLNKALK[hSer]-laurylamide) [Production Example 3] is ____.
Outgoing: 40.0

Incoming: What value of Retention time has been recorded for this entry: VIP analog-n-propylamide derivative (HSDAVFTGNYTKLRKQLAAKKYLNKALK[hSer]-{n‑propylamide}) [Production Example 1]
Outgoing: 18.0
